- target_entity: RIPK2(h) (Homo sapiens)
- Sequence (O43353 whole entry): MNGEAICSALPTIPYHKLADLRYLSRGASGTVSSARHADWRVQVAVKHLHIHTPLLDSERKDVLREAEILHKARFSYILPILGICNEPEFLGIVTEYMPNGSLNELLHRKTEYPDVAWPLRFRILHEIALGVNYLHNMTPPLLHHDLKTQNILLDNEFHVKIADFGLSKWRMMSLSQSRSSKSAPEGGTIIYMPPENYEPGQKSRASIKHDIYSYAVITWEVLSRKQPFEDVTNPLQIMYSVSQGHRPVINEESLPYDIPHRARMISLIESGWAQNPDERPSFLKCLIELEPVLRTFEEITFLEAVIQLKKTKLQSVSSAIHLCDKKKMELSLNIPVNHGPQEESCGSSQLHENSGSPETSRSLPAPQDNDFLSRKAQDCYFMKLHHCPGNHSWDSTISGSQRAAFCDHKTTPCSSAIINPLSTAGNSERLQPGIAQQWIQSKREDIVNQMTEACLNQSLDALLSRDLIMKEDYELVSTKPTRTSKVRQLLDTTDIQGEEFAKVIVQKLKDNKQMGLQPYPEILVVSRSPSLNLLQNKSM
- assay_method_text: Kinase Profiling Assay
- Type: biochemical
- settings: 100 μM
measurement_name: % activity (%)
Enter your answer as a number in %; do not include the unit.

[in] Tell me its % activity given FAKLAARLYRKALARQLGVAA [MMI-0300] as the entry.
[out] 97

[in] Tell me its % activity given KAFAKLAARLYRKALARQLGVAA [MMI-0400] as the entry.
[out] 98

[in] Tell me its % activity given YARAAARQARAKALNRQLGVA [MMI-0200] as the entry.
[out] 98

[in] Tell me its % activity given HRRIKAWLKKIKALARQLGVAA [MMI-0500] as the entry.
[out] 30

----------
Can you tell me % activity for the items I'm about to list?
- target_entity: Fer(h) (Homo sapiens, UniProt P16591)
- Sequence (P16591 whole entry): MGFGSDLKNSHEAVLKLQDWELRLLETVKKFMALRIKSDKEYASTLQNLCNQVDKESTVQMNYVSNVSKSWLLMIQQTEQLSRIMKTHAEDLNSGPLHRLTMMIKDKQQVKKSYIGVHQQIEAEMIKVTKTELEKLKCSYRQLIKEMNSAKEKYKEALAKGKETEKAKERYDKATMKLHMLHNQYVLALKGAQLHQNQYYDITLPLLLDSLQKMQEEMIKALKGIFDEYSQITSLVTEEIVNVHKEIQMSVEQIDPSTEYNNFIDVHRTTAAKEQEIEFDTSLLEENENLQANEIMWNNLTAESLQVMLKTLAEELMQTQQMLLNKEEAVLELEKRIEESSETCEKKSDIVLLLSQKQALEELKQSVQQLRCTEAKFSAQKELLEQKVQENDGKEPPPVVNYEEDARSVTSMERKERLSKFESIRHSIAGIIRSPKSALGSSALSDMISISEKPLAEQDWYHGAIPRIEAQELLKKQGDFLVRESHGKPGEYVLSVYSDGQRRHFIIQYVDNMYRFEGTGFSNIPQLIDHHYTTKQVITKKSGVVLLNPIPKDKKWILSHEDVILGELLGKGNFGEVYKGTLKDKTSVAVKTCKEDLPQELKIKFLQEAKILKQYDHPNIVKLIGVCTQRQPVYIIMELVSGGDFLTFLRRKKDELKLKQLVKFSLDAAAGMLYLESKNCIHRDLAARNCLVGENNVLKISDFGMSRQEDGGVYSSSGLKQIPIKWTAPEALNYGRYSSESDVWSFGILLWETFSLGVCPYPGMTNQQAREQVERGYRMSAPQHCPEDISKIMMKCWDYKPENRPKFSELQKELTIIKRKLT
- assay_method_text: Kinase Profiling Assay
- Format: biochemical
- settings: 100 μM
Enter your answer as a number in %; do not include the unit.

[in] Tell me its % activity given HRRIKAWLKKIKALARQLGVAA [MMI-0500] as the entry.
[out] 196

[in] Tell me its % activity given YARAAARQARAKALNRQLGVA [MMI-0200] as the entry.
[out] 101

[in] Tell me its % activity given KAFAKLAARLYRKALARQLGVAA [MMI-0400] as the entry.
[out] 108

[in] Tell me its % activity given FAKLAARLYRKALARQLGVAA [MMI-0300] as the entry.
[out] 130

----------
- target_entity: Fms(h) (Homo sapiens)
- assay_method_text: Kinase Profiling Assay
- Type: biochemical
- settings: 100 μM
measurement_name: % activity (%)
Enter your answer as a number in %; do not include the unit.

[in] Tell me its % activity given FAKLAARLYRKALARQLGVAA [MMI-0300] as the entry.
[out] 45

[in] Tell me its % activity given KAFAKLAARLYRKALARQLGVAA [MMI-0400] as the entry.
[out] 37

[in] Tell me its % activity given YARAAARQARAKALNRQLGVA [MMI-0200] as the entry.
[out] 92

[in] Tell me its % activity given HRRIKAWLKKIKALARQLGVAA [MMI-0500] as the entry.
[out] 14

----------
Can you tell me % activity for the items I'm about to list?
- target_entity: EphA4(h) (Homo sapiens)
- Sequence (P54764 20-986): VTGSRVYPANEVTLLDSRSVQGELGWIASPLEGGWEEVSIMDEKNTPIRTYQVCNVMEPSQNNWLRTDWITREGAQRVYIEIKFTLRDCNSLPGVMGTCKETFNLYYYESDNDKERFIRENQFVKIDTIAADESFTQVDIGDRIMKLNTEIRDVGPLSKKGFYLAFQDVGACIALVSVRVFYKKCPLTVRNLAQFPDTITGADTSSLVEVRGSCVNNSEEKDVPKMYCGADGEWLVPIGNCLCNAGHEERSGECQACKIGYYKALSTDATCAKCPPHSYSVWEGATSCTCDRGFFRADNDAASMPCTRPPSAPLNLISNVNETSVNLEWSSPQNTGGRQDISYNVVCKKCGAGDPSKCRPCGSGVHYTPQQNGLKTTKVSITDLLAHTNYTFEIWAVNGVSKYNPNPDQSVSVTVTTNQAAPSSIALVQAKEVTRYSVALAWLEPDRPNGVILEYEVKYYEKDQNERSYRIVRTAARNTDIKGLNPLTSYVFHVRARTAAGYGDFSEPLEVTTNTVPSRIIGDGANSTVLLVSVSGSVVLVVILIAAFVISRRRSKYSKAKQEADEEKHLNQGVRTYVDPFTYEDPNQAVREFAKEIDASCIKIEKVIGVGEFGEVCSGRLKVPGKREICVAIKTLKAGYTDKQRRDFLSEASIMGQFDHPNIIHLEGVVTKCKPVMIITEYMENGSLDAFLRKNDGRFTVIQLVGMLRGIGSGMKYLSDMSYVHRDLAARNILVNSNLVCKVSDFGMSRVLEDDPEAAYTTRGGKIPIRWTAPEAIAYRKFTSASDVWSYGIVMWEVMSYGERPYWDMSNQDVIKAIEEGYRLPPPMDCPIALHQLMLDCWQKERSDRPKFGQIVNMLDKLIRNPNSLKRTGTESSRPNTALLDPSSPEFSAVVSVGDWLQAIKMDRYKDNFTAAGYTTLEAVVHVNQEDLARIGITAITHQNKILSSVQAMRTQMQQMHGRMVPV
- assay_method_text: Kinase Profiling Assay
- Type: biochemical
- settings: 100 μM
Enter your answer as a number in %; do not include the unit.

[in] Tell me its % activity given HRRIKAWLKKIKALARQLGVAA [MMI-0500] as the entry.
[out] 48

[in] Tell me its % activity given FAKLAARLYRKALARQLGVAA [MMI-0300] as the entry.
[out] 88

[in] Tell me its % activity given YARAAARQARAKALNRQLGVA [MMI-0200] as the entry.
[out] 127

[in] Tell me its % activity given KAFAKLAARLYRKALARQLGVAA [MMI-0400] as the entry.
[out] 65

----------
- target_entity: PKCγ(h) (Homo sapiens, UniProt P05129)
- assay_method_text: Kinase Profiling Assay
- Type: biochemical
- settings: 100 μM
measurement_name: % activity (%)
Enter your answer as a number in %; do not include the unit.

[in] Tell me its % activity given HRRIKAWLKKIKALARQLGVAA [MMI-0500] as the entry.
[out] 6

[in] Tell me its % activity given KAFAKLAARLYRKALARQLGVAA [MMI-0400] as the entry.
[out] 79

[in] Tell me its % activity given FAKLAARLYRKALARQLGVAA [MMI-0300] as the entry.
[out] 89

[in] Tell me its % activity given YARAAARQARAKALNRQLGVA [MMI-0200] as the entry.
[out] 101

----------
- target_entity: Syk(h) (Homo sapiens)
- assay_method_text: Kinase Profiling Assay
- Type: biochemical
- settings: 100 μM
Can you tell me % activity for the items I'm about to list?
Enter your answer as a number in %; do not include the unit.

[in] Tell me its % activity given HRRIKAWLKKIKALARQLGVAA [MMI-0500] as the entry.
[out] 5

[in] Tell me its % activity given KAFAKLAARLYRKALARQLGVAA [MMI-0400] as the entry.
[out] 9

[in] Tell me its % activity given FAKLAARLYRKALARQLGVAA [MMI-0300] as the entry.
[out] 24

[in] Tell me its % activity given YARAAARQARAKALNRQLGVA [MMI-0200] as the entry.
[out] 36

----------
- target_entity: Rse(h) (Homo sapiens)
- Sequence (Q06418 41-890): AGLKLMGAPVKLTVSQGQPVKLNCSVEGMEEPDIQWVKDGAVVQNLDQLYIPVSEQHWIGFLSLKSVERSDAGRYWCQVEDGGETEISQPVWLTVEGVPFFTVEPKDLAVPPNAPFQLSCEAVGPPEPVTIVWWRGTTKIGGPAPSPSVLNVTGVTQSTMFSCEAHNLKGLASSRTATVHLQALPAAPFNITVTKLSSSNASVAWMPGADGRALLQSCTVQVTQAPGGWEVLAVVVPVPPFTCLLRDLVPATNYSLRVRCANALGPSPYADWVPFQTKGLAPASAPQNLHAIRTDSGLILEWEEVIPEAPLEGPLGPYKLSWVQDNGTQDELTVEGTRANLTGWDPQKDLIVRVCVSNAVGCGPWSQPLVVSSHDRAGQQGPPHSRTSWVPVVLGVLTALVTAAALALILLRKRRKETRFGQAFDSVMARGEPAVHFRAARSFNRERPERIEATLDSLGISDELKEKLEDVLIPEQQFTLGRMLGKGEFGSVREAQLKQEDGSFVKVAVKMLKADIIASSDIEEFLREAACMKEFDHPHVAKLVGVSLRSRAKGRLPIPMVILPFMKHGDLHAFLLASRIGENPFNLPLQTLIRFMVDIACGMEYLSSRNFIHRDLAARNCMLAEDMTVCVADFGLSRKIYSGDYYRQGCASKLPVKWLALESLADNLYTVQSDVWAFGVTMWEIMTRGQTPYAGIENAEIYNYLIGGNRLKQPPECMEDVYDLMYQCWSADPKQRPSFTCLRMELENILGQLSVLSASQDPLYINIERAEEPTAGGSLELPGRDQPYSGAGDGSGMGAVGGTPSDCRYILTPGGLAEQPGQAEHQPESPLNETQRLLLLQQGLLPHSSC
- assay_method_text: Kinase Profiling Assay
- Assay type: biochemical
- settings: 100 μM
measurement_name: % activity (%)
Enter your answer as a number in %; do not include the unit.

[in] Tell me its % activity given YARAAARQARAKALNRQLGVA [MMI-0200] as the entry.
[out] 88

[in] Tell me its % activity given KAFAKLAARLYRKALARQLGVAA [MMI-0400] as the entry.
[out] 89

[in] Tell me its % activity given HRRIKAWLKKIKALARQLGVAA [MMI-0500] as the entry.
[out] 63

[in] Tell me its % activity given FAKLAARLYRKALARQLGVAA [MMI-0300] as the entry.
[out] 88

----------
- target_entity: Ros(h) (Homo sapiens)
- assay_method_text: Kinase Profiling Assay
- Type: biochemical
- settings: 100 μM
measurement_name: % activity (%)
Enter your answer as a number in %; do not include the unit.

[in] Tell me its % activity given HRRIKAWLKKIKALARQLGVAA [MMI-0500] as the entry.
[out] 150

[in] Tell me its % activity given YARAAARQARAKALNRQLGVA [MMI-0200] as the entry.
[out] 86

[in] Tell me its % activity given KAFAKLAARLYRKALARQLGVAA [MMI-0400] as the entry.
[out] 99

[in] Tell me its % activity given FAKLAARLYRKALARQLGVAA [MMI-0300] as the entry.
[out] 95

----------
Can you tell me % activity for the items I'm about to list?
- target_entity: BrSK1(h) (Homo sapiens, UniProt Q8TDC3)
- Sequence (Q8TDC3 1-778): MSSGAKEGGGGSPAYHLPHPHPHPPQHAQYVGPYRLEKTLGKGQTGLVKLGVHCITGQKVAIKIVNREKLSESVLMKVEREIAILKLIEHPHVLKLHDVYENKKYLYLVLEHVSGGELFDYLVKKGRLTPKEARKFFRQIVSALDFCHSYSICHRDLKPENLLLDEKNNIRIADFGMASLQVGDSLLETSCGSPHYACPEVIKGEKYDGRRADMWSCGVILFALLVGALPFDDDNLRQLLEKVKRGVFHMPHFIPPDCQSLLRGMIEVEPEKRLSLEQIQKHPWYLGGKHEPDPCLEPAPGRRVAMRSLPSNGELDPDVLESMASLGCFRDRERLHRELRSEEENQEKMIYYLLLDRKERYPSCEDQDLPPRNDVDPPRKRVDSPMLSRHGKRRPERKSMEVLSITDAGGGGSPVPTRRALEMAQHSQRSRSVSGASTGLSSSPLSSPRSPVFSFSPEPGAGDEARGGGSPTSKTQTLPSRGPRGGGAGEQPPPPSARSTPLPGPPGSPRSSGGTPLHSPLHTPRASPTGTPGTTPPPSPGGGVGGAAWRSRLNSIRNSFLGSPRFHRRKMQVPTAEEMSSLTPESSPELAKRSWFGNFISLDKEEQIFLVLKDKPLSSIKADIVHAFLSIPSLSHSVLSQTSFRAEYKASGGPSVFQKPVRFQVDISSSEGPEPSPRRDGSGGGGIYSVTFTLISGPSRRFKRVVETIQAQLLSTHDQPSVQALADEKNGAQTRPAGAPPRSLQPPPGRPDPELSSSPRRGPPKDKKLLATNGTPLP
- assay_method_text: Kinase Profiling Assay
- Type: biochemical
- settings: 100 μM
Enter your answer as a number in %; do not include the unit.

[in] Tell me its % activity given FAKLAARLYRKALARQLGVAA [MMI-0300] as the entry.
[out] 67

[in] Tell me its % activity given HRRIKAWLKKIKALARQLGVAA [MMI-0500] as the entry.
[out] 72

[in] Tell me its % activity given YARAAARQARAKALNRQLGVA [MMI-0200] as the entry.
[out] 93

[in] Tell me its % activity given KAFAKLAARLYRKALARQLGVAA [MMI-0400] as the entry.
[out] 76
